# Test system: Candida albicans UP10
# Assay type: cell-based
# CONDITION_INFO: UP10, 6 h
Where a SMILES comes first, the peptide text is derived from it.
MEASURED_QUANTITY: pEC50
Note on units: pEC50 is unitless, being -log10 of a concentration expressed in mol/L.

The molecule CC[C@H](C)[C@H](NC(=O)[C@@H](N)Cc1ccc(O)cc1)C(=O)N[C@@H](CO)C(=O)N[C@@H](CS)C(=O)N[C@@H](Cc1ccc(O)cc1)C(=O)N[C@@H](C)C(=O)NCC(=O)N[C@@H](C)C(=O)N[C@H](C(=O)N[C@@H](CO)C(=O)N[C@@H](Cc1ccc(O)cc1)C(=O)N[C@@H](CC(N)=O)C(=O)N[C@@H](CCC(N)=O)C(=O)N[C@@H](CCCCN)C(=O)N[C@@H](Cc1ccccc1)C(=O)N[C@@H](CCCCN)C(=O)O)[C@@H](C)O [N6A] (H-YISCYAGATSYNQKFK-OH; N-terminus and C-terminus assumed) showed pEC50 equal to 5.81
